# experiment description: Oral bioavailability in Wistar rat at 10 mg/kg
# Format: ADME, organism-based
# details: in vivo
Listed here: items and their measured bioavailability.
assay endpoint: bioavailability

INSERT INTO results (smiles_repr, readout_value) VALUES
  ('FC(F)(F)c1ccccc1-c1ccc2[nH]ncc2c1', '37%'),
  ('FC(F)(F)c1ccccc1-c1cc2cn[nH]c2cc1Cl', '63%'),
  ('FC(F)(F)c1ccccc1-c1cc2cn[nH]c2cc1OCC1CC1', '4%'),
  ('COc1cc2[nH]ncc2cc1-c1ccccc1C(F)(F)F', '50%'),
  ('Cc1cc2[nH]ncc2cc1-c1ccccc1C(F)(F)F', '39%');

###

Entries and their measured inhibition follow.
# subject of test: Transient receptor potential cation channel subfamily M member 8 (Homo sapiens, UniProt Q7Z2W7)
# Sequence (Q7Z2W7 whole entry, looked up): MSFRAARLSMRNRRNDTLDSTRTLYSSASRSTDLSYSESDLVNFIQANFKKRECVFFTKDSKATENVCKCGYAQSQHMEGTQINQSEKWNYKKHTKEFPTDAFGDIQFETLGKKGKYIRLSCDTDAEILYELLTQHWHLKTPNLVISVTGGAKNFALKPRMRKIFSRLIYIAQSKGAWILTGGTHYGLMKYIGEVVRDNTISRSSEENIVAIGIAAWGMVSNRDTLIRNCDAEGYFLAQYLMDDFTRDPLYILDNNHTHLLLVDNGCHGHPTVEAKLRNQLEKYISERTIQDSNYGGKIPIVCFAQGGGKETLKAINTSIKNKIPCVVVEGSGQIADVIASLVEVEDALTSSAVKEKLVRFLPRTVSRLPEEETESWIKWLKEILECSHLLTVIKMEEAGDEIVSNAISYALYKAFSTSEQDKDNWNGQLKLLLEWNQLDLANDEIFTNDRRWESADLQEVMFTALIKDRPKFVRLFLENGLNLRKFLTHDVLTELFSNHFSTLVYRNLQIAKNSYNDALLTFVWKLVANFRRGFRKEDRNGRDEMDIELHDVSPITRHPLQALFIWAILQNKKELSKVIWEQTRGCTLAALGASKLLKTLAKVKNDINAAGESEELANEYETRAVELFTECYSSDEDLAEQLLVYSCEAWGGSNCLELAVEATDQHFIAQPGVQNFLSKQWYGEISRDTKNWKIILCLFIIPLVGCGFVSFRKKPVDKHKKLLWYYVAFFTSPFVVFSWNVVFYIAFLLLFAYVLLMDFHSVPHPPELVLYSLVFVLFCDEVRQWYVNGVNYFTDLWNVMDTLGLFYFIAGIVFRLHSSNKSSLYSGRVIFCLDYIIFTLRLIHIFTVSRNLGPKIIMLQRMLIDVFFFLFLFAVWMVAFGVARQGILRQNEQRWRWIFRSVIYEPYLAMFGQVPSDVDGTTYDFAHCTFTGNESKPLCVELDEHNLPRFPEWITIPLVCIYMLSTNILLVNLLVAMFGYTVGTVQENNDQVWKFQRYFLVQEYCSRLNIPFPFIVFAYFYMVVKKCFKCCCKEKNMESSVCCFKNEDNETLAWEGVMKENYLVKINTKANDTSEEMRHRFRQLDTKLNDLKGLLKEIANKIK
# experiment description: Antagonist activity at human TRPM8 expressed in CHOK1 cells assessed as inhibition of menthol-induced calcium flux incubated 10 mins prior to menthol addition by FLIPR assay relative to control
# Type: cell-based
# Parameters: concentration or dose not given beside the values
# details: CHO-K1
assay endpoint: inhibition (%)

INSERT INTO results (smiles_repr, assay_endpoint, readout_value) VALUES
  ('COc1cc2[nH]ncc2cc1-c1ccccc1C(F)(F)F', 'inhibition', 100),
  ('FC(F)(F)c1ccccc1-c1cc2cn[nH]c2cc1OCC1CC1', 'inhibition', 100),
  ('FC(F)(F)c1ccccc1-c1ccc2[nH]ncc2c1', 'inhibition', 95),
  ('Cc1cc2[nH]ncc2cc1-c1ccccc1C(F)(F)F', 'inhibition', 90),
  ('FC(F)(F)c1ccccc1-c1cc2cn[nH]c2cc1Cl', 'inhibition', 71),
  ('FC(F)(F)Oc1cc2[nH]ncc2cc1-c1ccccc1C(F)(F)F', 'inhibition', 100);

###

# experiment description: Oral bioavailability in Balb/C mouse at 20 mg/kg
# Format: ADME, organism-based
# details: in vivo
assay endpoint: bioavailability (%)

INSERT INTO measurements (smiles_repr, readout_value) VALUES
  ('Cc1cc2[nH]ncc2cc1-c1ccccc1C(F)(F)F', 17);

###

# experiment description: Volume of distribution at steady state in Balb/C mouse at 5 mg/kg, iv
# Assay type: ADME, organism-based
# Design: dose 5 mg/kg, route intravenous
# details: in vivo, read-out: Vdss
assay endpoint: Vd

INSERT INTO results (smiles_repr, readout_value) VALUES
  ('Cc1cc2[nH]ncc2cc1-c1ccccc1C(F)(F)F', '4.07 L/kg');

###

Documented pIC50 across a set of molecules
# subject of test: Transient receptor potential cation channel subfamily A member 1 (Mus musculus, UniProt Q8BLA8)
# Sequence (Q8BLA8 whole entry): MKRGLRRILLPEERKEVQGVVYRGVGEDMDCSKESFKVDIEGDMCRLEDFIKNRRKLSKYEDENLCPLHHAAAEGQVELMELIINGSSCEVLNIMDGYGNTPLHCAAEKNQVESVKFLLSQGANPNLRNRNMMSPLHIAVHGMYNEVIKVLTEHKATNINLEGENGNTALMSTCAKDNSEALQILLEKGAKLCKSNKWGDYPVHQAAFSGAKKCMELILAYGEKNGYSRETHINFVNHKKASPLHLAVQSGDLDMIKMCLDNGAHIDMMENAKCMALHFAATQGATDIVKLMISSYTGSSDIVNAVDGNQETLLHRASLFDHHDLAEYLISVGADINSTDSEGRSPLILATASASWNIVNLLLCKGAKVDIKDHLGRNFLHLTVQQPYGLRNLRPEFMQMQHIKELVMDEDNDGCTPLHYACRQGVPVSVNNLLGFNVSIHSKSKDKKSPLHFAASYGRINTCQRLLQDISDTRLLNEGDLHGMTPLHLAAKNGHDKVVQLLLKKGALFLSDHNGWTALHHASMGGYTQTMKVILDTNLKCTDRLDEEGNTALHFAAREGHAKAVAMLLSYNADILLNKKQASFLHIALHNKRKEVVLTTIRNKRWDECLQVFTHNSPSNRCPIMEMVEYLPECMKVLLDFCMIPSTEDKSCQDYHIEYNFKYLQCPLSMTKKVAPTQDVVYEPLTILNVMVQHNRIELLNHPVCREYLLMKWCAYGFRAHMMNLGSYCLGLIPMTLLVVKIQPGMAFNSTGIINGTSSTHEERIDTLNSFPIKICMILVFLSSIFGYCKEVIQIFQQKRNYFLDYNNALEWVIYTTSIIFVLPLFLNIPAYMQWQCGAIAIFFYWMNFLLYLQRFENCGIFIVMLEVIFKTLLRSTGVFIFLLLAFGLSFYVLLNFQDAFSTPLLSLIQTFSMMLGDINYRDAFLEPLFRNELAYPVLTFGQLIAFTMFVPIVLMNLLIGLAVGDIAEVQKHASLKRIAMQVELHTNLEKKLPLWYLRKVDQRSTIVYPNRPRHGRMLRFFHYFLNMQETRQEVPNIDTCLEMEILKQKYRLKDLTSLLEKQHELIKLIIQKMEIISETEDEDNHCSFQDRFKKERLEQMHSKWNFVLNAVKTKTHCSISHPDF
# experiment description: Antagonist activity at mouse TRPA1 expressed in CHO-TREX cells assessed as inhibition of cinnamaldehyde-induced calcium flux incubated 10 mins prior to cinnamaldehyde addition by FLIPR assay relative to control
pIC50: −log10 of the molar value.
assay endpoint: pIC50

INSERT INTO results (smiles_repr, readout_value) VALUES
  ('COc1cc2[nH]ncc2cc1-c1ccccc1C(F)(F)F', 6.79),
  ('FC(F)(F)c1ccccc1-c1cc2cn[nH]c2cc1Cl', 7.03),
  ('FC(F)(F)c1ccccc1-c1cc2cn[nH]c2cc1OCC1CC1', 6.98),
  ('Cc1cc2[nH]ncc2cc1-c1ccccc1C(F)(F)F', 7.28),
  ('FC(F)(F)Oc1cc2[nH]ncc2cc1-c1ccccc1C(F)(F)F', 6.60),
  ('FC(F)(F)c1ccccc1-c1ccc2[nH]ncc2c1', 6.60);
